# test system: Human spleen cathepsin S (Homo sapiens, UniProt P25774)
# Construct: Human spleen cathepsin S (Calbiochem 219344, 40 ng/mL); purchased Calbiochem 219344; host or cells: human spleen
# Sequence (P25774 115-331): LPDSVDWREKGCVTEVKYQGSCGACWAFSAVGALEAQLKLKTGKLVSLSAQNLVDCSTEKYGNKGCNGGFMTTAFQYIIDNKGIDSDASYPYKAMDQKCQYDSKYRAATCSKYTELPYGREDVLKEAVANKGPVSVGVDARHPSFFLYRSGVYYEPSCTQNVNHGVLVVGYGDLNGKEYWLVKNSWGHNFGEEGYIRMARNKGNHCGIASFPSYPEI
# test details: Cathepsin S assay, IC50 determination
# Format: biochemical
# cond: Tables 2-11; read-out: Cat S
# Procedure: Human spleen cathepsin S (Calbiochem 219344, 40 ng/mL) was assayed using 15 microM Z-Phe-Arg-AMC substrate. Human liver cathepsin B (Calbiochem 219362, 65 ng/mL) was assayed using 15 microM Z-Arg-Arg-AMC substrate (Bachem I-1135). All reactions were performed in 20 mM sodium acetate buffer containing 1 mM EDTA and 5 mM cysteine, pH 5.5. […]
pIC50: −log10 of the molar value.
Below: a set of entries, each annotated with reported pIC50.
assay endpoint: pIC50

>>> df
                                   compound  comparison_operator  numeric_result
0  CCc1ccccc1NC(=O)COC(=O)NNC(=O)[C@H](Cc1c[nH]c2ccccc12)NC(=O)OC(C)(C)C [Compound No. 93]                    =            7.21
1  CCOC(=O)NNC(=O)[C@H](Cc1c[nH]c2ccccc12)NC(=O)OC(C)(C)C [Compound No. 95]                    ≤            4.60
2  Cc1ccc(S(=O)(=O)NNC(=O)[C@H](Cc2ccc(OC(=O)OC(C)(C)C)cc2)NC(=O)OC(C)(C)C)cc1 [Compound No. 122]                    ≤            4.60
3  O=C(CCc1c[nH]c2ccccc12)NNC(=O)CCc1c[nH]c2ccccc12 [Compound No. 114]                    ≤            4.60
4  CC(C)(C)OC(=O)N[C@@H](Cc1c[nH]c2ccccc12)C(=O)NNC(=O)OCc1ccccc1 [Compound No. 94]                    =            5.39

---

# test system: human liver cathepsin L (Homo sapiens, UniProt P07711)
# Construct: 8.7 ng/mL human liver cathepsin L (Calbiochem 219402); purchased Calbiochem 219402; host or cells: human liver
# Sequence (P07711 114-288 limits assumed): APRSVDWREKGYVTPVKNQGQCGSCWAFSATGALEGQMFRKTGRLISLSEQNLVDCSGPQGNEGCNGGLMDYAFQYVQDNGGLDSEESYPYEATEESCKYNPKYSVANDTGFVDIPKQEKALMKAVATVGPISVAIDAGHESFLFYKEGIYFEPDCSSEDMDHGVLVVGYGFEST
# Sequence (P07711 292-333 limits assumed): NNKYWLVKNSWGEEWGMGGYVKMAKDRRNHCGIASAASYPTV
# test details: Cathepsin L assay, IC50 determination
# Format: biochemical
# cond: Tables 2-11; read-out: Cat L
Below: a set of entries, each annotated with reported IC50.
assay endpoint: IC50

>>> print(df.to_string())
                                    molecule    result
 0  CC(C)(C)OC(=O)N[C@@H](Cc1ccc(OC(=O)OC(C)(C)C)cc1)C(=O)NNC(=O)C(=O)N1CCc2ccccc2C1 [Compound No. 127]   ≥ 25 µM
 1  CCc1ccccc1NC(=O)COC(=O)NNC(=O)[C@H](Cc1c[nH]c2ccccc12)NC(=O)OC(C)(C)C [Compound No. 93]  0.011 µM
 2  CC(C)(C)OC(=O)N[C@@H](Cc1c[nH]c2ccccc12)C(=O)NNC(=O)OCC(=O)N1CCCc2ccccc21 [Compound No. 96]  0.006 µM
 3  CC(C)(C)OC(=O)N[C@@H](Cc1c[nH]c2ccccc12)C(=O)N/N=C/c1ccc(Cl)cc1 [Compound No. 124]   ≥ 25 µM
 4  C/C=C(/C=O)[C@@H](CC=O)CC(=O)OCCc1ccc(O)cc1 [Compound No. 121]   ≥ 25 µM
 5  CC(C)(C)OC(=O)N[C@@H](Cc1c[nH]c2ccccc12)C(=O)NOCC(=O)N1CCCc2ccccc21 [Compound No. 120]   ≥ 25 µM
 6  CC(C)(C)OC(=O)N[C@@H](Cc1c[nH]c2ccccc12)C(=O)NNC(=O)OCc1ccccc1 [Compound No. 94]  0.806 µM
 7  CSCC[C@H](NC(=O)OC(C)(C)C)C(=O)NNC(=S)SCC(=O)N1CCc2ccccc21 [Compound No. 126]   ≥ 25 µM
 8  Cc1ccc(S(=O)(=O)NNC(=O)[C@H](Cc2ccc(OC(=O)OC(C)(C)C)cc2)NC(=O)OC(C)(C)C)cc1 [Compound No. 122]   ≥ 25 µM
 9  CCc1ccccc1NC(=O)CCC(=O)NNC(=O)[C@H](Cc1c[nH]c2ccccc12)NC(=O)OC(C)(C)C [Compound No. 113]   ≥ 25 µM
10  CC(C)(C)OC(=O)N[C@@H](Cc1c[nH]c2ccccc12)C(=O)N/N=C/c1ccccc1 [Compound No. 123]   ≥ 25 µM
11  CC(C)(C)OC(=O)N[C@@H](Cc1c[nH]c2ccccc12)C(=O)NNC(=O)NCC(=O)N1CCCc2ccccc21 [Compound No. 125]   2.34 µM
12  CC(C)(C)OC(=O)N[C@H](Cc1c[nH]c2ccccc12)C(=O)NN [Compound No. 119]   ≥ 25 µM
13  CC(C)(C)OC(=O)N[C@@H](Cc1c[nH]c2ccccc12)C(=O)NNC(=O)[C@@H](Cc1c[nH]c2ccccc12)NC(=O)OC(C)(C)C [Compound No. 117]   ≥ 25 µM
14  CC(C)(C)OC(=O)N[C@@H](Cc1c[nH]c2ccccc12)C(=O)NN [Compound No. 118]   ≥ 25 µM
